Each entry below carries its recorded Dmax.
# tgt: CDK6 (Homo sapiens, UniProt Q00534)
# Construct: endogenous in cells
# Sequence (Q00534 whole entry): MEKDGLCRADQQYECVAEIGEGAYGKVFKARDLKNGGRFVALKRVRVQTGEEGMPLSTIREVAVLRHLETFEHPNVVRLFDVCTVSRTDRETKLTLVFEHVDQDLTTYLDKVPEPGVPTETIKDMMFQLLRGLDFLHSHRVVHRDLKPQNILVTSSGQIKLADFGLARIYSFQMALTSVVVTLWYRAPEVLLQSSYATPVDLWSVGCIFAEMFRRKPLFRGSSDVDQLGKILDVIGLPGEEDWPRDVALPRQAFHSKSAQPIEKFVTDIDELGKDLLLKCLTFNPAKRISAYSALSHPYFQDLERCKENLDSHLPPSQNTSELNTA
# assay.notes: CDK6 degradation (DC50, Dmax)
# Assay type: cell-based

Guide cases for Dmax, answers given:
CC(=O)c1c(C)c2cnc(Nc3ccc(N4CCN(C(=O)N5CCN(C6CCN(c7ccc8c(c7)C(=O)N(C7CCC(=O)NC7=O)C8=O)CC6)CC5)CC4)cn3)nc2n(C2CCCC2)c1=O (centres unmarked) [Compound 5]	> 60%
CC(=O)c1c(C)c2cnc(Nc3ccc(C4CCN(C(=O)C5CN(c6ccc7c(c6)CN(C6CCC(=O)NC6=O)C7=O)C5)CC4)cn3)nc2n(C2CCCC2)c1=O (centres unmarked) [Compound 130]	> 60%
Cc1nc2c(F)cc(-c3nc(Nc4ccc(CN5CCN(C(=O)C6CCN(c7ccc8c(c7)CN(C7CCC(=O)NC7=O)C8=O)CC6)CC5)cn4)ncc3F)cc2n1C(C)C (centres unmarked) [Compound 154]	> 60%
CC(=O)c1c(C)c2cnc(Nc3ccc(N4CCN(CC5CCN(C(=O)N6CCC(c7ccc8c(c7)CN(C7CCC(=O)NC7=O)C8=O)CC6)CC5)CC4)cn3)nc2n(C2CCCC2)c1=O (centres unmarked) [Compound 34]	> 50%

For Cc1nc2c(F)cc(-c3nc(Nc4ccc(CC5CCN(CC6CN(c7ccc8c(c7)CN(C7CCC(=O)NC7=O)C8=O)C6)CC5)cn4)ncc3F)cc2n1C(C)C (centres unmarked) [Compound 140] , what is its reported Dmax?
> 80%

###

# tgt: CDK4 (Homo sapiens, UniProt P11802)
# Construct: endogenous in cells
# Sequence (P11802 whole entry): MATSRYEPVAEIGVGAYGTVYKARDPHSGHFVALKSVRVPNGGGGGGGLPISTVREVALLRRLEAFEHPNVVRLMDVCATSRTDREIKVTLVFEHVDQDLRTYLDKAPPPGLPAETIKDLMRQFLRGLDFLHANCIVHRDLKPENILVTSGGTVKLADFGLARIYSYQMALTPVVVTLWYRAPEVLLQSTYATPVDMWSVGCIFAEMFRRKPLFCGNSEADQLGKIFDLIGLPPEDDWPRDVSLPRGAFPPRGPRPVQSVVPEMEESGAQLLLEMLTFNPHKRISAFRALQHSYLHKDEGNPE
# assay.notes: CDK4 degradation (DC50, Dmax)
# Type: cell-based
test.readout: DC50

Here are 4 compounds together with their reported answers.
CC(=O)c1c(C)c2cnc(Nc3ccc(N4CCN(C5CCN(C(=O)Nc6ccc7c(c6)CN(C6CCC(=O)NC6=O)C7=O)CC5)CC4)cn3)nc2n(C2CCCC2)c1=O (centres unmarked)	50 to 200 nM
Cc1nc2c(F)cc(-c3nc(Nc4ccc(CN5CCN(C(=O)C6CN(c7ccc8c(c7)C(=O)N(C7CCC(=O)NC7=O)C8=O)C6)CC5)cn4)ncc3F)cc2n1C(C)C (centres unmarked)	< 50 nM
CC(=O)c1c(C)c2cnc(Nc3ccc(N4CCN(C(=O)C5CN(c6ccc7c(c6)CN(C6CCC(=O)NC6=O)C7=O)C5)CC4)cn3)nc2n(C2CCCC2)c1=O (centres unmarked)	< 50 nM
Cc1nc2c(F)cc(-c3nc(Nc4ccc(CC5CCN(C6CCN(c7ccc8c(c7)CN(C7CCC(=O)NC7=O)C8=O)CC6)CC5)cn4)ncc3F)cc2n1C(C)C (centres unmarked)	< 50 nM

Pending compound:
Give CDK4 (Homo sapiens, UniProt P11802) DC50 for CC(=O)c1c(C)c2cnc(Nc3ccc(N4CCN(C(=O)C5CN(c6ccc(C(=O)NC7CCC(=O)NC7=O)cc6)C5)CC4)cn3)nc2n(C2CCCC2)c1=O (centres unmarked)
< 50 nM

###

# tgt: CDK4 (Homo sapiens, UniProt P11802)
# Construct: endogenous in cells
# assay.notes: CDK4 degradation (DC50, Dmax)
# Type: cell-based
test.readout: Dmax

Known results for compounds:
Cc1nc2c(F)cc(-c3nc(Nc4ccc(CC5CCN(C(=O)C6CN(c7ccc(C(=O)NC8CCC(=O)NC8=O)cc7)C6)CC5)cn4)ncc3F)cc2n1C(C)C (centres unmarked) [Compound 145]	> 60%
CC(=O)c1c(C)c2cnc(Nc3ccc(N4CCN(CC5CCN(c6ccc(N7CCC(=O)NC7=O)cc6)CC5)CC4)cn3)nc2n(C2CCCC2)c1=O [Compound 112]	> 80%
CC(=O)c1c(C)c2cnc(Nc3ccc(N4CCN(CCCNc5ccc6c(c5)C(=O)N(C5CCC(=O)NC5=O)C6=O)CC4)cn3)nc2n(C2CCCC2)c1=O (centres unmarked) [Compound 49]	> 80%

Query Dmax on CDK4 (Homo sapiens, UniProt P11802) for Cc1nc2c(F)cc(-c3nc(Nc4ccc(CC5CCN(C6CCN(c7ccc8c(c7)CN(C7CCC(=O)NC7=O)C8=O)CC6)CC5)cn4)ncc3F)cc2n1C(C)C (centres unmarked) [Compound 170]
> 80%

Which Dmax is reported with CDK4 (Homo sapiens, UniProt P11802) for this entry: CC(=O)c1c(C)c2cnc(Nc3ccc(N4CCN(C(=O)N5CCC(C6CCN(c7ccc8c(c7)CN(C7CCC(=O)NC7=O)C8=O)CC6)CC5)CC4)cn3)nc2n(C2CCCC2)c1=O (centres unmarked) [Compound 10] ?
> 50%

Enter reported Dmax observed with CDK4 (Homo sapiens, UniProt P11802) for CC(=O)c1c(C)c2cnc(Nc3ccc(C4CCN(CC5CN(c6ccc7c(c6)CN(C6CCC(=O)NC6=O)C7=O)C5)CC4)cn3)nc2n(C2CCCC2)c1=O (centres unmarked) [Compound 126]
> 80%

# value lookup — system CDK4 (Homo sapiens, UniProt P11802), readout Dmax, item CC(=O)c1c(C)c2cnc(Nc3ccc(N4CCN(C(=O)N5CCC(N6CCC(c7ccc8c(c7)CN(C7CCC(=O)NC7=O)C8=O)CC6)CC5)CC4)cn3)nc2n(C2CCCC2)c1=O (centres unmarked) [Compound 8]
> 60%

Provide value of Dmax for this record tested with CDK4 (Homo sapiens, UniProt P11802): CC(=O)c1c(C)c2cnc(Nc3ccc(N4CCN(C5CCN(C(=O)N6CCC(c7ccc8c(c7)C(=O)N(C7CCC(=O)NC7=O)C8=O)CC6)CC5)CC4)cn3)nc2n(C2CCCC2)c1=O (centres unmarked) [Compound 37]
> 50%

API: value(readout=Dmax, system=CDK4 (Homo sapiens, UniProt P11802)) for record CC(=O)c1c(C)c2cnc(Nc3ccc(N4CCN(C(=O)N5CCN(CCC6CCN(c7ccc8c(c7)C(=O)N(C7CCC(=O)NC7=O)C8=O)CC6)CC5)CC4)cn3)nc2n(C2CCCC2)c1=O (centres unmarked) [Compound 23]
> 60%

For CDK4 (Homo sapiens, UniProt P11802), provide Dmax of CC(=O)c1c(C)c2cnc(Nc3ccc(N4CCN(C(=O)N5CCC(CN6CCC(c7ccc8c(c7)CN(C7CCC(=O)NC7=O)C8=O)CC6)CC5)CC4)cn3)nc2n(C2CCCC2)c1=O (centres unmarked) [Compound 18] please.
> 50%

So what Dmax did CC(=O)c1c(C)c2cnc(Nc3ccc(N4CCN(CC5CCN(C(=O)N6CCC(N7CCN(c8ccc9c(c8)C(=O)N(C8CCC(=O)NC8=O)C9=O)CC7)CC6)CC5)CC4)cn3)nc2n(C2CCCC2)c1=O (centres unmarked) [Compound 89] get with CDK4 (Homo sapiens, UniProt P11802)?
> 60%
